- measured on: Recombinant human glycogen synthase kinase 3β (Homo sapiens, UniProt P49841)
- Sequence (P49841 whole entry): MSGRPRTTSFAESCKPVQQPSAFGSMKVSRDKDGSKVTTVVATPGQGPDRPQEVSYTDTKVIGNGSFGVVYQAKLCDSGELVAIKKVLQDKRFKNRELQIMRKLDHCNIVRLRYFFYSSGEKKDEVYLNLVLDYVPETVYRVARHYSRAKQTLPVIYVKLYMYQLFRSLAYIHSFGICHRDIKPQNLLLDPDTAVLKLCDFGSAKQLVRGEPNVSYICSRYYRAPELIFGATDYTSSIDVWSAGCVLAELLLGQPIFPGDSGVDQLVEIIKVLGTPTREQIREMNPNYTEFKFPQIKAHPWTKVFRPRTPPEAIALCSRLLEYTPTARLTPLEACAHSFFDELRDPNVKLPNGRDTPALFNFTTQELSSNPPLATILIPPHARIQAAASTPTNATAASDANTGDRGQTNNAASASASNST
- protocol description: GSK3β inhibition, radiometric kinase assay with GS-2 peptide and 33P-ATP
measured metric: IC50 (µM)
I only need the number, in µM, no unit after it.

CC1=C(O)[C@@H](C/C(C)=C/CC[C@H](C)/C=C/C=C(\C)CCCc2ccoc2)OC1=O [Palinurin] tested on Recombinant human glycogen synthase kinase 3β (Homo sapiens, UniProt P49841) gave IC50: 4.5
